The origin of these recorded values is patent US20250221966A1.

Target: human RXFP1 (Homo sapiens)
Construct: expressed in transfected cells
Sequence (Q9HBX9 whole entry): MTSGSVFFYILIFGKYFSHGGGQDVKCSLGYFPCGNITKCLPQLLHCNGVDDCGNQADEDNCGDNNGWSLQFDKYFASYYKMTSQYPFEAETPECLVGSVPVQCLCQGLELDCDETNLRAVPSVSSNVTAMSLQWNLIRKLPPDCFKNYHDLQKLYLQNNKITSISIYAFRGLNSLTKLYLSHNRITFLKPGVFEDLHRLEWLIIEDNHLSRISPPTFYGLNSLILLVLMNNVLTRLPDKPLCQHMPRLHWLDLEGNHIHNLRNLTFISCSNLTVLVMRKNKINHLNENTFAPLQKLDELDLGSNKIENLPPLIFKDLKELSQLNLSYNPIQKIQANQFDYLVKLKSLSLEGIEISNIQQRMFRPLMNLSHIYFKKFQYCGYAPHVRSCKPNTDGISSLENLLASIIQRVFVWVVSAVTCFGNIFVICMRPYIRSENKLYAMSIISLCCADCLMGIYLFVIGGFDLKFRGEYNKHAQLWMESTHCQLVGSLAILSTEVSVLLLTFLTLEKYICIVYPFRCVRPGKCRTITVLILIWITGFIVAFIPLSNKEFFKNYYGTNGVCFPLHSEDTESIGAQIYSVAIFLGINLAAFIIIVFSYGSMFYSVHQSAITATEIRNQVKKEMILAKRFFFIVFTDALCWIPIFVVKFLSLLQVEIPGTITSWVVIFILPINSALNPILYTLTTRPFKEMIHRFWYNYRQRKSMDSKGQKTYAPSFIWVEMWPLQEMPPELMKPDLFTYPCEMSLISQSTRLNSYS
Assay: RXFP1 cAMP assay (hRXFP1 HEK293 cAMP assay, HTRF)
Format: cell-based
Settings: HEK293 cells stably expressing human RXFP1, 30 min at room temperature, read-out: cAMP hRXFP1 HEK293 Assay EC50
pEC50: −log10 of the molar value.

compound	pEC50
COC(=O)N1CC=C(c2ccc(OC)c(C(=O)N[C@@H]3C4CCC(C4=C(C)C)[C@@H]3C(=O)Nc3ccc(F)c(C(F)(F)F)c3)c2)CC1 (stereo partly drawn)	5.55
COc1ccc(N2CCCC(CO)C2)cc1C(=O)NC1C2CCC(/C2=C/C(F)(F)F)C1C(=O)Nc1ccc(F)c(C(F)(F)F)c1 (stereo in doubt)	5.32
COc1cc(F)c(F)cc1C(=O)N[C@@H]1C2CCC(/C2=C/c2ccccc2Cl)[C@@H]1C(=O)Nc1ccc(F)c(C(F)(F)F)c1 (stereo partly drawn)	6.66
COc1ccc(C2=NOC3COCC23)cc1C(=O)N[C@H]1[C@@H](C(=O)N[C@H](C)C2CCC2)[C@H]2CC[C@@H]1/C2=C\C1CC1 (stereo partly drawn)	7.89
COc1cc(F)c(F)cc1C(=O)N[C@@H]1C2CCC(/C2=C/c2cnoc2)[C@@H]1C(=O)Nc1ccc(F)c(C(F)(F)F)c1 (stereo partly drawn)	7.06
COc1ccc(C2=NOC(C(=O)O)C2)cc1C(=O)N[C@@H]1C2CCC(/C2=C/C2CC2)[C@@H]1C(=O)Nc1ccc(F)c(C(F)(F)F)c1 (single isomer, unassigned)	8.10
COc1ccc(C2=NOC3COCC23)cc1C(=O)N[C@H]1[C@@H](C(=O)Nc2cc(C(F)(F)F)c(F)cc2F)[C@H]2CC[C@@H]1/C2=C\C1CC1 (stereo partly drawn)	8.52
CCO/N=C1\C2CCC1[C@H](C(=O)Nc1ccc(F)c(C(F)(F)F)c1)[C@@H]2NC(=O)c1cc(-c2cc(C(=O)O)ccc2F)ccc1OC (stereo partly drawn)	6.36
COc1ccc(C2=NOC3CC(CO)CC23)cc1C(=O)N[C@H]1[C@@H](C(=O)Nc2ccc(F)c(C(F)(F)F)c2)[C@H]2CC[C@@H]1/C2=C\c1ccncn1 (stereo partly drawn)	8.34
C=C/C=C1\C2CCC1[C@H](C(=O)Nc1ccc(F)c(C(F)(F)F)c1)[C@@H]2NC(=O)c1cc(F)c(F)cc1OC (stereo partly drawn)	7.59
COc1ccc(-c2cc(C(=O)O)ccc2F)cc1C(=O)N[C@@H]1C2CCC(/C2=C/C2CC2)[C@@H]1C(=O)NC(C)c1cc(F)ccc1F (stereo partly drawn)	6.02
COc1ccc(C2=NOC3C(O)CC(O)C23)cc1C(=O)N[C@H]1[C@@H](C(=O)Nc2ccc(F)c(C(F)(F)F)c2)[C@H]2CC[C@@H]1/C2=C\C1CC1 (single isomer, unassigned) [compound 680]	6.24
